test: Vapor pressure; format: physicochemical
# Lookup of reported Vapor Pressure keyed by entry
Please format your answer as a value with the unit trailing.

CC1C(=O)CC2(C)CCC1C2 (stereo not shown) [Structure 2, 1,4-dimethyl-bicyclo[3.2.1]octan-3-one] : 4305 µg/L

Enquiry: For the compound shown here, CC12CCC(C1)C1(C)OC1C2 (stereo not shown) , give the reported Vapor Pressure.
Return: 2186 µg/L

Enquiry: Could you share which Vapor Pressure value was measured for CC1CC2(C)C3CCC(C)(C3)CC2O1 (stereo not shown) ?
Return: 1045 µg/L

Enquiry: Quick check: Vapor Pressure of CC1C2CCC(C)(C2)CC12OCCO2 (stereo not shown) ?
Return: 1281 µg/L
